Every entry's value here was drawn from patent US20240279318A1.

TESTED_TARGET: T1, AFP158/HLA-A*02:01 complex (human)
T1 construct: flowed over the chip in SPR; also called AFP158 pro
TEST_SUMMARY: SPR, scFv captured, pMHC in flow;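 note: complex injected at several concentrations over crude scFv, association then running-buffer dissociation, KD estimated from kinetic on- and off-rate constants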
READOUT_TYPE: Kd (nM)
The reply should contain only the number, in nM.

BINDER: HS57T (scFv, AS170036 VL1VH1 scFv mutein) scFv: QSALTQPRSVSGSPGQSVTISCAGTSSDVGSENYVSWYQQHPGKAPKLMIYQVNKRASGVPDRFSGSKSGNTASLTISGLQAEDEADYYCASYRSSDHNIVFGGGTKLTVLGGGGSGGGGSGGGGSEVQLVESGGGLVQPGGSLRLSCAASGFTFSSYAMSWVRQAPGKGLEWVSTINSGTGTPYYADSVKGRFTISRDNSKNTLYLQMNSLRAEDTAVYYCAKNFFDGSWFLGPPAMDYWGQGTLVTVSSHHHHHH
Kd / nM: 220

Now turn to the next binder.
Q. Return reported Kd. Input binder: HP58A (scFv, AS170036 VL1VH1 scFv mutein) scFv: QSALTQPRSVSGSPGQSVTISCAGTSSDVGSENYVSWYQQHPGKAPKLMIYQVNKRASGVPDRFSGSKSGNTASLTISGLQAEDEADYYCASYRSSDHNIVFGGGTKLTVLGGGGSGGGGSGGGGSEVQLVESGGGLVQPGGSLRLSCAASGFTFSSYAMSWVRQAPGKGLEWVSTINSGTGSAYYADSVKGRFTISRDNSKNTLYLQMNSLRAEDTAVYYCAKNFFDGSWFLGPPAMDYWGQGTLVTVSSHHHHHH
A. 380
